Could you please report measured IC50 for the items listed next?
Tested on: COLO 205
test.details: Antiproliferative activity against human COLO205 cells by MTT assay
Format: functional, cell-based
condition.details: Homo sapiens, COLO 205
Give bare numbers, in µM.

Worked cases, answers included:
Ask | Returns the measured IC50 for the input molecule. Input: "O=c1[nH]c(-c2ccc(Br)cc2)nc2ccccc12"
Reply | 11

Ask | Then "CCCc1nn(C)c2c(=O)[nH]c(-c3ccc(C)cc3)nc12" ?
Reply | 14

Ask | Then "CCCc1nn(C)c2c(=O)[nH]c(-c3ccc(OC)cc3)nc12" ?
Reply | 9

Ask | Then "COc1ccc(-c2nc(O)c3ccccc3n2)cc1" ?
Reply | 8

Ask | Then "CCCc1nn(C)c2c(=O)[nH]c(-c3cccc(Cl)c3)nc12" ?
Reply | 11

Ask | Then "O=c1[nH]c(-c2cccc(Cl)c2)nc2ccccc12" ?
Reply | 12

Ask | Then "CCCc1nn(C)c2c(=O)[nH]c(-c3cccc([N+](=O)[O-])c3O)nc12" ?
Reply | 10

Ask | Then "CCCc1nn(C)c2c(=O)[nH]c(-c3cccc(Br)c3)nc12" ?
Reply | 12

Each molecule below has a recorded value; state its IC50.
1. O=c1[nH]c(-c2ccc([N+](=O)[O-])cc2)nc2ccccc12
2. CCCc1nn(C)c2c(=O)[nH]c(-c3ccc(Br)cc3)nc12
3. COc1ccc2c(c1)[nH]c1c(C)nccc12
4. Oc1nc(-c2ccc(F)cc2)nc2ccccc12
5. CCCc1nn(C)c2c(=O)[nH]c(-c3ccc(Cl)cc3)nc12
6. CCCc1nn(C)c2c(=O)[nH]c(-c3ccc(O)c(OC(F)F)c3)nc12

Reply |
1. 23
2. 25
3. 8
4. 10
5. 10
6. 7
